Test system: 485176-168-R4-J1-PDC complex spheroid growth;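 further: spheroids exposed to compounds for seven days before readout; luminescence viability expressed relative to DMSO vehicle wells set as 100%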
Assay: Anticancer human tumor 485176-168-R4-J1-PDC patient-derived pancreatic adenocarcinoma cell line growth inhibition [RAS]
Conditions: second compound 0.316 µM; first compound 0.0316 µM; active compounds read low
Exercise: state measured viability, T/C for each of the compounds provided.
Please state the figure in %; there is no need to write the unit.

Per the record, Nc1ccn(C2OC(CO)C(O)C2(F)F)c(=O)n1 (stereo not given) + C#Cc1c(F)ccc2cc(O)cc(-c3ncc4c(N5CC6CCC(C5)N6)nc(OCC56CCCN5CC(F)C6)nc4c3F)c12 has viability, T/C of 13.2

Per the record, C=CC(=O)N1CCN(c2nc(OCC3CCCN3C)nc3c(F)c(-c4nc(N)cc(C)c4C(F)(F)F)c(Cl)cc23)C(C)C1 (stereo not given) + C#Cc1c(F)ccc2cc(O)cc(-c3ncc4c(N5CC6CCC(C5)N6)nc(OCC56CCCN5CC(F)C6)nc4c3F)c12 has viability, T/C of 103

Per the record, CC(=O)OC12COC1CC(O)C1(C)C(=O)C(O)C3=C(C)C(OC(=O)C(O)C(NC(=O)OC(C)(C)C)c4ccccc4)CC(O)(C(OC(=O)c4ccccc4)C21)C3(C)C (stereo not given) + C=CC(=O)N1CCN(c2nc(OCC3CCCN3C)nc3c(F)c(-c4nc(N)cc(C)c4C(F)(F)F)c(Cl)cc23)C(C)C1 has viability, T/C of 18.4

Per the record, CC(C)n1nc(-c2ccc3oc(N)nc3c2)c2c(N)ncnc21 + C=CC(=O)N1CCN(c2nc(OCC3CCCN3C)nc3c(F)c(-c4nc(N)cc(C)c4C(F)(F)F)c(Cl)cc23)C(C)C1 has viability, T/C of 43.6

Per the record, NC1c2ccccc2OC12CCN(c1cnc3c(N4CCCc5ncccc54)n[nH]c3n1)CC2 (stereo not given) + C#Cc1c(F)ccc2cc(O)cc(-c3ncc4c(N5CC6CCC(C5)N6)nc(OCC56CCCN5CC(F)C6)nc4c3F)c12 has viability, T/C of 78.4

Per the record, CC(C)n1nc(-c2ccc3oc(N)nc3c2)c2c(N)ncnc21 + C#Cc1c(F)ccc2cc(O)cc(-c3ncc4c(N5CC6CCC(C5)N6)nc(OCC56CCCN5CC(F)C6)nc4c3F)c12 has viability, T/C of 61.7

Per the record, CC(C)NCC(C(=O)N1CCN(c2ncnc3c2C(C)CC3O)CC1)c1ccc(Cl)cc1 (stereo not given) + C=CC(=O)N1CCN(c2nc(OCC3CCCN3C)nc3c(F)c(-c4nc(N)cc(C)c4C(F)(F)F)c(Cl)cc23)C(C)C1 has viability, T/C of 106

Per the record, Cc1nc(N2CCC3(CC2)COC(C)C3N)c(CO)nc1Sc1ccnc(N)c1Cl (stereo not given) + C=CC(=O)N1CCN(c2nc(OCC3CCCN3C)nc3c(F)c(-c4nc(N)cc(C)c4C(F)(F)F)c(Cl)cc23)C(C)C1 has viability, T/C of 101

Per the record, CCC(CC)c1cc(NC2CCC(N)C2)n2nccc2n1 (stereo not given) + C#Cc1c(F)ccc2cc(O)cc(-c3ncc4c(N5CC6CCC(C5)N6)nc(OCC56CCCN5CC(F)C6)nc4c3F)c12 has viability, T/C of 85.5

Per the record, CC(Nc1ccc2c(c1)OCCn1cc(N3C(=O)OCC3C(F)F)nc1-2)C(N)=O (stereo not given) + C=CC(=O)N1CCN(c2nc(OCC3CCCN3C)nc3c(F)c(-c4nc(N)cc(C)c4C(F)(F)F)c(Cl)cc23)C(C)C1 has viability, T/C of 108
